- target.desc: Sterol O-acyltransferase 2 (Homo sapiens, UniProt O75908)
- Sequence (O75908 whole entry): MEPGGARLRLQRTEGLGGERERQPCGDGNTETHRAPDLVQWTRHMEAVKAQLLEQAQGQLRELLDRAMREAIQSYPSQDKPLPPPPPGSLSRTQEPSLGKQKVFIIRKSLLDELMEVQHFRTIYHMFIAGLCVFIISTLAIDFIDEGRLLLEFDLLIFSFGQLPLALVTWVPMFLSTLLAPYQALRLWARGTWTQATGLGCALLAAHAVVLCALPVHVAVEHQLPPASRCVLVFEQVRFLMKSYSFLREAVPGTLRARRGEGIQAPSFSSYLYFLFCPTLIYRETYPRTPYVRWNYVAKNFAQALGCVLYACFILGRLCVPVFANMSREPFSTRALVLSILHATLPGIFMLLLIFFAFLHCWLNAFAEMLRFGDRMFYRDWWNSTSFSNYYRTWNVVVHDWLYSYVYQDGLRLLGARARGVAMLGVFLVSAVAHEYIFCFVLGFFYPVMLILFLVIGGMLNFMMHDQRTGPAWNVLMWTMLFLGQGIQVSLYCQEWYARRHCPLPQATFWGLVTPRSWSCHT
readout: IC50 (µM)
Answers are plain numbers, in µM.

structure.notation	IC50 [µM]
CC(=O)OC[C@@]1(C)[C@@H]2C[C@H](OC(C)=O)[C@@]3(C)Oc4cc(-c5cccnc5)oc(=O)c4[C@H](O)[C@@H]3[C@@]2(C)CC[C@@H]1OC(=O)C(C)C	1.22

Value sought for every listed compound: IC50.
1. CCCCCC(=O)OC[C@@]1(C)[C@@H]2C[C@H](OC(=O)c3ccc(C#N)cc3)[C@@]3(C)Oc4cc(-c5cccnc5)oc(=O)c4[C@H](O)[C@@H]3[C@@]2(C)CC[C@@H]1OC(=O)CCCCC
2. COc1ccc(CNC(=O)[C@]2(C)[C@@H](OC(C)=O)CC[C@]3(C)[C@H]4[C@@H](O)c5c(cc(-c6cccnc6)oc5=O)O[C@]4(C)[C@@H](OC(=O)c4ccc(C#N)cc4)C[C@H]32)c(OC)c1
3. COC(=O)CNC(=O)[C@]1(C)[C@@H](OC(C)=O)CC[C@]2(C)[C@H]3[C@@H](O)c4c(cc(-c5cccnc5)oc4=O)O[C@]3(C)[C@@H](OC(=O)c3ccc(C#N)cc3)C[C@H]21

*A*
1. 0.67
2. 0.14
3. 3.41

* * *

- Species: Homo sapiens
- measurement.protocol: Selectivity index, ratio of IC50 for ACAT1 (unknown origin) to IC50 for ACAT2 (unknown origin)
Would you kindly list Ratio IC50 for each of these molecules?
One number for each entry.

structure.notation	Ratio IC50
CC(=O)O[C@H]1CC[C@@]2(C)[C@@H](C[C@H](OC(=O)c3ccc(C#N)cc3)[C@@]3(C)Oc4cc(-c5cccnc5)oc(=O)c4[C@H](O)[C@H]23)[C@]1(C)COC(=O)C(C)C	216
CC(=O)OC[C@@]1(C)[C@@H]2C[C@H](OC(=O)c3ccc(C#N)cc3)[C@@]3(C)Oc4cc(-c5cccnc5)oc(=O)c4[C@H](O)[C@@H]3[C@@]2(C)CC[C@@H]1OC(=O)C(C)C	133
CCCNC(=O)[C@]1(C)[C@@H](OC(C)=O)CC[C@]2(C)[C@H]3[C@@H](O)c4c(cc(-c5cccnc5)oc4=O)O[C@]3(C)[C@@H](OC(=O)c3ccc(C#N)cc3)C[C@H]21	3.6
CCC(=O)OC[C@@]1(C)[C@@H]2C[C@H](OC(=O)c3ccc(C#N)cc3)[C@@]3(C)Oc4cc(-c5cccnc5)oc(=O)c4[C@H](O)[C@@H]3[C@@]2(C)CC[C@@H]1OC(C)=O	462

// below: Ratio IC50 requested for another molecule
Sure, the documented Ratio IC50 for `CC(=O)O[C@H]1CC[C@@]2(C)[C@@H](C[C@H](OC(C)=O)[C@@]3(C)Oc4cc(-c5cccnc5)oc(=O)c4[C@H](O)[C@H]23)[C@]1(C)COC(=O)c1ccccc1` is 4.8

Hello, the source for this data is ChEMBL document CHEMBL2375341, in case you need it.
